Cited source: patent US20090215893A1

system: back of a hairless mouse (HR-1), 10 mass % oleic acid applied; assay: Parakeratosis-inhibiting effect tests: oleic acid applied to hairless mouse back, macroscopic rough skin evaluation and parakeratosis value; format: in vivo; settings: summary of Table 1, concentrations as in Table 1
Measurement name: rough skin preventing effect, based on stratum corneum peeling and redness

Molecule: CCN[C@H](CO)C(=O)O [N-ethyl-D-serine]
Tested system: back of a hairless mouse (HR-1), 10 mass % oleic acid applied
Result: seen
--
Molecule: CNC(C)C(=O)O (racemic) [N-methyl-DL-alanine]
Tested system: back of a hairless mouse (HR-1), 10 mass % oleic acid applied
Result: seen
--
Molecule: O=C(O)[C@@H](CO)NS(=O)(=O)c1ccccc1 [N-benzenesulfonyl-D-serine]
Tested system: back of a hairless mouse (HR-1), 10 mass % oleic acid applied
Result: seen
--
Molecule: O=C(O)[C@H](CO)NS(=O)(=O)c1ccccc1 [N-benzenesulfonyl-L-serine]
Tested system: back of a hairless mouse (HR-1), 10 mass % oleic acid applied
Result: seen
--
Molecule: C[C@@H](NC1CCCCC1)C(=O)O [N-cyclohexyl-D-alanine]
Tested system: back of a hairless mouse (HR-1), 10 mass % oleic acid applied
Result: seen

State its rough skin preventing effect, based on stratum corneum peeling and redness: CC(NC1CCCCC1)C(=O)O (racemic) [N-cyclohexyl-DL-alanine]
seen

Determine from records and report rough skin preventing effect, based on stratum corneum peeling and redness for O=C(O)CNC1CCCCC1 [N-cyclohexyl-glycine]
seen

Return rough skin preventing effect, based on stratum corneum peeling and redness for the following molecule: O=C(O)CNS(=O)(=O)c1ccccc1 [N-benzenesulfonyl-glycine]
seen

Identify measured rough skin preventing effect, based on stratum corneum peeling and redness corresponding to CCN[C@H](C)C(=O)O [N-ethyl-D-alanine]
seen

Give a short answer stating reported rough skin preventing effect, based on stratum corneum peeling and redness for CC(NS(=O)(=O)c1ccccc1)C(=O)O (racemic) [N-benzenesulfonyl-DL-alanine] .
seen
